# GI50 per entry
# Test system: PC-3
# test_description: NCI tumour cell line growth inhibition, 48 h
Calls of active or inactive are those of the source. Rule as the data show it: active = GI50 up to about 1.1 µM and inactive = higher.
quantity_kind: GI50

>>> value_reported("COc1ccccc1/C=N/Nc1nnc2c3ccccc3c3ncccc3c2n1")
"> 100 µM (inactive)"
>>> value_reported("Cc1sc(/N=C/c2c[nH]c3ccccc23)c(C#N)c1C")
"45.7 µM (inactive)"
>>> value_reported("CC(C)(C)c1cc(OCc2nnc3sc(-c4ccc(Cl)cc4)nn23)c(Cl)cc1OCc1nnc2sc(-c3ccc(Cl)cc3)nn12")
"4.62 µM (inactive)"
>>> value_reported("Cn1cc(-c2n[nH]c(-c3ccc(Cl)cc3)nc2=O)c2ccccc21")
"2.3 µM (inactive)"
>>> value_reported("N#Cc1c(N2CCN(c3ccc([N+](=O)[O-])cc3)CC2)[n+]([O-])c2ccccc2[n+]1[O-]")
"> 100 µM (inactive)"
>>> value_reported("CCN(CC)C(=O)CCCCCCCCC1CO1 (stereo not given)")
"> 100 µM (inactive)"
>>> value_reported("COc1ccc(C(Cc2ccccc2)C2NC(=S)NC2=O)cc1 (stereo not given)")
"> 25 µM (inactive)"
>>> value_reported("CCOC(=O)C1(C(=O)OCC)C[C@]23OCCC(=O)[C@H]2[C@H]2C(=O)OC(C)(C)O[C@]23C1")
"> 100 µM (inactive)"
>>> value_reported("N#Cc1ccc(-n2c3ccccc3c3ccc4c(c32)C(=O)C=CC4=O)cc1")
"3.06 µM (inactive)"
>>> value_reported("O=c1[nH]c2ccccc2c(=O)n1/N=C/c1ccc(O)cc1")
"73.5 µM (inactive)"
>>> value_reported("CC(CN(C)C)C(=O)c1ccccc1C(=O)O (stereo not given)")
"23.9 µM (inactive)"
>>> value_reported("O=S1(=O)c2ccccc2Oc2ccc(C(/C=N/O)=N/O)cc21")
"32.5 µM (inactive)"
>>> value_reported("CN(C)c1ccc(/C=C2\\N=C(c3ccccc3)N(/N=C3\\C(=O)Nc4ccccc43)C2=O)cc1")
"56.5 µM (inactive)"
>>> value_reported("CC(=O)O/C=C1/C[C@H]2[C@@H]3CCC4CC(C(C)=O)CC[C@]4(C)[C@H]3CC[C@]2(C)C1=O (stereo not given in full)")
"> 100 µM (inactive)"
>>> value_reported("COc1ccc(/C=C2\\N=C(c3ccccc3)N(C3Nc4cc5c(cc4S3)NC(N3C(=O)/C(=C/c4ccc(OC)cc4)N=C3c3ccccc3)S5)C2=O)cc1 (stereo not given)")
"83.6 µM (inactive)"
